Measured values drawn from the kinase profiling compilation of Christmann-Franck et al. (2016) for this set.

Molecular target: IKBKB (human) (UniProt O14920)
Sequence (O14920 whole entry, looked up): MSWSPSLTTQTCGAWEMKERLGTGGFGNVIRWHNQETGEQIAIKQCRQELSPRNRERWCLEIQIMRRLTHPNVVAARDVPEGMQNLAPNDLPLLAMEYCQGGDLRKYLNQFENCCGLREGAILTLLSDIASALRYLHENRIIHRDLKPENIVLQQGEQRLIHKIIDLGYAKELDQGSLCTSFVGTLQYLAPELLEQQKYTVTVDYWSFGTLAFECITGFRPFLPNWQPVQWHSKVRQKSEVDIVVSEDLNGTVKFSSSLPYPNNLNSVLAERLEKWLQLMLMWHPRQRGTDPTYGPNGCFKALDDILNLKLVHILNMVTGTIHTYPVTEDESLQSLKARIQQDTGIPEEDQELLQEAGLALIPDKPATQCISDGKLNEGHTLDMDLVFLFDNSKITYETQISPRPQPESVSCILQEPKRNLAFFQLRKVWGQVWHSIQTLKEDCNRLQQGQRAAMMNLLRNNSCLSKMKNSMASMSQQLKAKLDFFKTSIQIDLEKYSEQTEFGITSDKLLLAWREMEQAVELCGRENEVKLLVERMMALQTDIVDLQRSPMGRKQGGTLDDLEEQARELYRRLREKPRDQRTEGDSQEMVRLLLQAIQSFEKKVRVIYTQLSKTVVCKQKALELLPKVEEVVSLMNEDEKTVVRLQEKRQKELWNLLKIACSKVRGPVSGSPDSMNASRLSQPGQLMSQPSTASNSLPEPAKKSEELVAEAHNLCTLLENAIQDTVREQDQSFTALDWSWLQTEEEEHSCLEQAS
Experiment: radiometric filter-binding kinase assay, Kinase HotSpot
Details: compound 0.5 µM; ATP 10 µM
Would you mind telling me the reported residual activity of each entry?
Answers are plain numbers, in %.

- compoundSmiles: "O=c1cc(N2CCOCC2)oc2c1ccc1ccccc12"
  scaleUnit: "%"
  residual activity: 105

The following compounds each have a reported value; give each one's residual activity.
1. COc1cc2ncnc(Nc3cccc(Cl)c3)c2cc1OC
2. Cc1[nH]c(/C=C2\C(=O)Nc3ccc(S(=O)(=O)N(C)c4cccc(Cl)c4)cc32)c(C)c1C(=O)N1CCN(C)CC1
3. CC[n+]1c(/C=C/N(C)c2ccccc2)n(-c2ccccc2)c2ccc(-c3nc4ccccc4s3)cc21
4. CC(=O)c1ccc(N2CCOCC2)cc1O
5. O=C1Nc2ccc(Cl)cc2/C1=C/c1cc(Cl)c(O)c(Cl)c1
6. O=C1NC(=O)C(c2cn(CCCn3ccnc3)c3ccccc23)=C1Nc1ccccc1

1. 102
2. 107
3. 98.6
4. 103
5. 93.6
6. 110
